Data origin: ChEMBL document CHEMBL1132937

// values below are Ki; system is Matrix metalloproteinase-9 (Homo sapiens)
Sequence (P14780 whole entry): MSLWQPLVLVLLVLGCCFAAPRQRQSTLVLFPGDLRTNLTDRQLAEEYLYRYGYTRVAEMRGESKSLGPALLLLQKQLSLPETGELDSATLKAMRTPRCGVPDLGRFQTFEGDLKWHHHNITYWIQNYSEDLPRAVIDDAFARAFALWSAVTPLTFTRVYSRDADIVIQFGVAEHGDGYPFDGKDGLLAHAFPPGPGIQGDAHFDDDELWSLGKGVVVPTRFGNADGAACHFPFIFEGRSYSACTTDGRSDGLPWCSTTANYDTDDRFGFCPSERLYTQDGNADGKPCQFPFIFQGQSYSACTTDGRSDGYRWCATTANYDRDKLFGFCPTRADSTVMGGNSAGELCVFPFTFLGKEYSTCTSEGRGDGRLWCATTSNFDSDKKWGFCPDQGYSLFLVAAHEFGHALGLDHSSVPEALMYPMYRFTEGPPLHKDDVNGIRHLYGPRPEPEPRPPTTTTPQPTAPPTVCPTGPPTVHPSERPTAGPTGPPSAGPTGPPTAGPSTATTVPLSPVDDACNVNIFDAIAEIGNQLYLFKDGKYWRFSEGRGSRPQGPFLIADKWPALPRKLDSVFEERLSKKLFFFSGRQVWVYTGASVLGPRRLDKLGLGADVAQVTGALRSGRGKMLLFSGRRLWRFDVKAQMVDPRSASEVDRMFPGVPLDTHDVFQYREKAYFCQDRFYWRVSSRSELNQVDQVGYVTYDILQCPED
Return type: number; implicit unit nM.

Here are 5 compounds together with their reported answers.
compound: O=C(CN(Cc1ccc([N+](=O)[O-])cc1)S(=O)(=O)c1cccc(NC(=O)NS(=O)(=O)c2ccc(F)cc2)c1)NO
units-of-measure: nM
Ki: 2.5

compound: O=C(CN(Cc1ccc([N+](=O)[O-])cc1)S(=O)(=O)c1cccc(NC(=O)NS(=O)(=O)c2ccc(Cl)cc2)c1)NO
units-of-measure: nM
Ki: 1.6

compound: O=C(O)CN(Cc1ccc([N+](=O)[O-])cc1)S(=O)(=O)c1cccc(NC(=O)NS(=O)(=O)c2ccc(F)cc2)c1
units-of-measure: nM
Ki: 18

compound: Cc1ccc(S(=O)(=O)NC(=O)N(CC(=O)NO)Cc2ccc([N+](=O)[O-])cc2)cc1
units-of-measure: nM
Ki: 8

compound: O=C(CN(Cc1ccc([N+](=O)[O-])cc1)C(=O)NS(=O)(=O)c1ccccc1)NO
units-of-measure: nM
Ki: 3

Output reported Ki of the compound "O=C(O)CN(Cc1ccc([N+](=O)[O-])cc1)S(=O)(=O)c1cccc(NC(=O)NS(=O)(=O)c2ccccc2)c1" on Matrix metalloproteinase-9 (Homo sapiens).
22

Output reported Ki of the compound "O=C(CN(Cc1ccc([N+](=O)[O-])cc1)S(=O)(=O)c1cccs1)NO" on Matrix metalloproteinase-9 (Homo sapiens).
10

* * *

// values below are pKi; system is UniProt P08253
Sequence (P08253 whole entry): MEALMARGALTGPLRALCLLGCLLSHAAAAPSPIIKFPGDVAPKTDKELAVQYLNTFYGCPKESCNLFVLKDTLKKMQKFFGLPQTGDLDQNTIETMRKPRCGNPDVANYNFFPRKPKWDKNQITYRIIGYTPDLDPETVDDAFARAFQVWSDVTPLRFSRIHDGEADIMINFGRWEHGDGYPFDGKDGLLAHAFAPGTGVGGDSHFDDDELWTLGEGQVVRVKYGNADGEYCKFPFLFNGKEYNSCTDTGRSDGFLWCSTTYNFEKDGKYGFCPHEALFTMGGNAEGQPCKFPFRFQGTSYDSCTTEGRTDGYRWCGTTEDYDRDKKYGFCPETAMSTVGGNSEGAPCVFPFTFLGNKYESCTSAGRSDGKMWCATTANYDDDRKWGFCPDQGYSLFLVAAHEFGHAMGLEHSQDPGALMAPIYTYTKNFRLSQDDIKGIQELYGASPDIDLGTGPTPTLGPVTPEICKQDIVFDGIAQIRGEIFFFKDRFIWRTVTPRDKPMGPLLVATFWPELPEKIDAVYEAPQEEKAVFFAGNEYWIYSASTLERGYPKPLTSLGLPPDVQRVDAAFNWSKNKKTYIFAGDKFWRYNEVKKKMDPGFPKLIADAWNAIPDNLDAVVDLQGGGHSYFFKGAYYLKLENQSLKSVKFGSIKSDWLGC
Please treat pKi as minus the base-10 logarithm of the molar concentration.

compound: O=C(CN(Cc1ccc([N+](=O)[O-])cc1)Sc1ccc([N+](=O)[O-])cc1)NO
pKi: 8.00
--
compound: O=C(CN(Cc1ccc([N+](=O)[O-])cc1)S(=O)(=O)C(Cl)(Cl)Cl)NO
pKi: 7.77
--
compound: O=C(CN(Cc1ccc([N+](=O)[O-])cc1)S(=O)(=O)c1cc(Cl)ccc1Cl)NO
pKi: 8.00

Output reported pKi of the compound "CC(=O)Nc1ccc(S(=O)(=O)N(CC(=O)NO)Cc2ccc([N+](=O)[O-])cc2)cc1" on UniProt P08253.
8.10

Output reported pKi of the compound "O=C(CN(Cc1ccc([N+](=O)[O-])cc1)S(=O)(=O)c1ccc([N+](=O)[O-])c(Cl)c1)NO" on UniProt P08253.
8.15

* * *

target-desc: Neutrophil collagenase (Homo sapiens)
Sequence (P22894 whole entry): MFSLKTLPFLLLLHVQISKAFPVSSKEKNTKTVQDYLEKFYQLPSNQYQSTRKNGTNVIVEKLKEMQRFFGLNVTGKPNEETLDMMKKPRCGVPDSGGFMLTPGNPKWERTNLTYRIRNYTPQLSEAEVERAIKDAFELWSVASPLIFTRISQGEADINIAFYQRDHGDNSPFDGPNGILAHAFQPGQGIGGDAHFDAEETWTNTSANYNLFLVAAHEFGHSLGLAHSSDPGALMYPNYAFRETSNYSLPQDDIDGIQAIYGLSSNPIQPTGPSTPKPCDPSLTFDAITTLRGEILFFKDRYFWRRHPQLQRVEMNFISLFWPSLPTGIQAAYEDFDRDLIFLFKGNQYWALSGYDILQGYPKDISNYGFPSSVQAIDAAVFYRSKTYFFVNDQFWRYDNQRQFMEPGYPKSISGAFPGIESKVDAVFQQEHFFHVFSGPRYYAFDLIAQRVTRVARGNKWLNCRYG
pKi: −log10 of the molar value.
Rule: pKi under 8 gives Not fulfilled, otherwise Fulfilled.

Below, 3 compounds whose answers are already recorded.
compound: O=C(CN(Cc1ccc([N+](=O)[O-])cc1)C(=O)NS(=O)(=O)c1ccccc1)NO
target-desc: Neutrophil collagenase (Homo sapiens)
answer-label: Fulfilled
--
compound: O=C(CN(Cc1ccc([N+](=O)[O-])cc1)S(=O)(=O)C(Cl)(Cl)Cl)NO
target-desc: Neutrophil collagenase (Homo sapiens)
answer-label: Not fulfilled
--
compound: O=C(CN(Cc1ccc([N+](=O)[O-])cc1)C(=S)NC(=O)c1ccccc1)NO
target-desc: Neutrophil collagenase (Homo sapiens)
answer-label: Fulfilled

Now let's try a different one.
Quick check: does "O=C(CN(Cc1ccc([N+](=O)[O-])cc1)S(=O)(=O)c1ccc(C(=O)O)cc1)NO" have pKi greater than or equal to 8?
Fulfilled
